Tested System: serotonin 2 receptor (Rattus norvegicus)
Structures can show the parent of a compound that is named as a salt.
Hi! Could you tag entries with Ki below 3 nM as TRUE, and those at or above as FALSE? Much appreciated.

| Compound | Tested System | Qualitative Label |
| --- | --- | --- |
| CCN1CCN(c2nc(-c3cc(F)c(OCCO)c(F)c3)cc3ccccc23)CC1 | serotonin 2 receptor (Rattus norvegicus) | FALSE |
| CCN1CCN(c2nc(-c3ccc(OCCF)cc3)cc3ccccc23)CC1 [Example 45, Dihydrochloride] | serotonin 2 receptor (Rattus norvegicus) | TRUE |
| CCN1CCN(c2nc(-c3ccc4c(c3)OCCO4)cc3ccccc23)CC1 [Example 332, dihydrochloride] | serotonin 2 receptor (Rattus norvegicus) | FALSE |
| CCN1CCN(c2nc(-c3ccc(OCCO)cc3)cc3cscc23)CC1 [Example 278, oxalate] | serotonin 2 receptor (Rattus norvegicus) | FALSE |
| CCN1CCN(c2nc(-c3ccc(OCC(N)=O)cc3)cc3ccccc23)CC1 [Example 338, dihydrochloride] | serotonin 2 receptor (Rattus norvegicus) | FALSE |
| CCN1CCN(c2nc(-c3ccc(CCCOC)cc3)cc3ccccc23)CC1 [Example 333, dihydrochloride] | serotonin 2 receptor (Rattus norvegicus) | FALSE |
| CCN1CCN(c2nc(/C=C/c3ccc(N4CCOCC4)nn3)cc3ccccc23)CC1 [Example 214, Oxalate] | serotonin 2 receptor (Rattus norvegicus) | FALSE |
| CCN1CCN(c2nc(-c3ccc(OCCCS(C)(=O)=O)cc3)cc3ccccc23)CC1 | serotonin 2 receptor (Rattus norvegicus) | FALSE |
| CCN1CCN(c2nc(-c3ccc(CCCO)c(C(N)=O)c3)cc3ccccc23)CC1 | serotonin 2 receptor (Rattus norvegicus) | FALSE |
| CCN1CCN(c2nc(-c3ccc(O[C@@H](C)CO)cc3)cc3ccccc23)CC1 [Example 404, Dihydrochloride] | serotonin 2 receptor (Rattus norvegicus) | TRUE |
| CN1CCN(c2nc(-c3ccc(OCCO)cc3)cc3sccc23)CC1 [Example 279, hydrochloride] | serotonin 2 receptor (Rattus norvegicus) | TRUE |
| CCN1CCN(c2nc(C#CC(O)c3ccccc3)cc3ccccc23)CC1 (stereo not shown) [Example 310, hydrochloride] | serotonin 2 receptor (Rattus norvegicus) | FALSE |
| CCN1CCN(c2nc(-c3ccc(N4CCOCC4)cc3)cc3ccccc23)CC1 [Example 160, dihydrochloride] | serotonin 2 receptor (Rattus norvegicus) | TRUE |
| CCN1CCN(c2nc(-c3ccc(/C=N/O)cc3)cc3ccccc23)CC1.Cl [Example 61, Hydrochloride] | serotonin 2 receptor (Rattus norvegicus) | FALSE |
| CCN1CCN(c2nc(-c3ccc(OCCO)c(F)c3)cc3ccccc23)CC1 [Example 369, dihydrochloride] | serotonin 2 receptor (Rattus norvegicus) | TRUE |
| CCN1CCN(c2nc(-c3ccc(C(C)(C)O)cc3)cc3ccccc23)CC1 | serotonin 2 receptor (Rattus norvegicus) | TRUE |

* * *

Tested System: serotonin 2 receptor (Rattus norvegicus, UniProt P14842)
Sequence (P14842 whole entry): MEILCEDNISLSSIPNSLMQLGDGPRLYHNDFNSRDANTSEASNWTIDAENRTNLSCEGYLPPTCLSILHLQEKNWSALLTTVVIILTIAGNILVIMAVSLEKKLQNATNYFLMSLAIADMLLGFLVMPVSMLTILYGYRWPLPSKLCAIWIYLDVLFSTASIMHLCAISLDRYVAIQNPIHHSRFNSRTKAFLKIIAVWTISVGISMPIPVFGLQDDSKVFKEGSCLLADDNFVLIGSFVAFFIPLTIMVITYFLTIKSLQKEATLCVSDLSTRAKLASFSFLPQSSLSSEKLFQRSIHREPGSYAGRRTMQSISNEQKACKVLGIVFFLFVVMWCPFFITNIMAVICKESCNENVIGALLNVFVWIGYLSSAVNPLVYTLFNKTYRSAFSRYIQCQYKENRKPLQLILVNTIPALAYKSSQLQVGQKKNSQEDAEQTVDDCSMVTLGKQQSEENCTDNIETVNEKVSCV
Where a name gives a salt, the structure may show the parent alone.

| Molecule | Ki / nM |
| --- | --- |
| CCNS(=O)(=O)Cc1ccc(-c2cc3ccccc3c(N3CCN(CC)CC3)n2)cc1 [Example 80, Hydrochloride] | 16.3 |
| CCN1CCN(c2nc(/C=C/c3ccccc3OCCO)cc3ccoc23)CC1 [Example 308, oxalate] | 19.5 |
| CCN1CCN(c2nc(-c3ccc(S(=O)(=O)CCCOC)cc3)cc3ccccc23)CC1 [Example 350] | 16.7 |
| CCN1CCN(c2nc(-c3ccc(CCO)c(F)c3)cc3ccccc23)CC1 [Example 385, Dihydrochloride] | 21.6 |
| CCN1CCN(c2nc(-c3ccc(N(C)C)cc3)cc3ccccc23)CC1 [Example 66, Dihydrochloride] | 21.6 |
| CCN1CCN(c2nc(-c3ccc(CCCO)c(F)c3)cc3ccccc23)CC1 [Example 29, hydrochloride] | 3.5 |
| CCC/C(=N\O)c1ccc(-c2cc3ccccc3c(N3CCN(CC)CC3)n2)cc1 [Example 380] | 23 |
